This collection of values is drawn from patent US7989451B2.

# System: human colon carcinoma HT29
# ASSAY COMMENT: Proliferation assay (IC50) under aerobic and hypoxic conditions, HT29
# Format: cell-based
# CONDITION DESCRIPTION: hypoxic cytotoxicity ratio = IC50 aerobic/IC50 hypoxic
Kind request: treat 80 as inclusive, so HCR at 80 or higher is true (1), anything lower is false (0).

Determine whether measured HCR meets or exceeds 80 for CCN(CC)CCNc1n[n+]([O-])c2cc3c(cc2[n+]1[O-])OCC3
true (1)

Determine whether measured HCR meets or exceeds 80 for COC1CN(CCNc2n[n+]([O-])c3cc4c(cc3[n+]2[O-])CCC4)C1
false (0)

Determine whether measured HCR meets or exceeds 80 for N#CC1CCN(CCCNc2n[n+]([O-])c3cc4c(cc3[n+]2[O-])CCC4)C1 (stereo not drawn)
false (0)

Determine whether measured HCR meets or exceeds 80 for [O-][n+]1nc(NCCCN2CCOCC2)[n+]([O-])c2ccc3c(c21)CCC3
false (0)

* * *

Counter-ions that a name gives are not always drawn.
I'd be grateful if you could share measured melting point for these entries.

Worked cases, answers included:
| COMPOUND | EXPERIMENTAL ENDPOINT | MEASURED |
| --- | --- | --- |
| [O-][n+]1nc(NCCN2CCCCC2)nc2cc3c(cc21)CCC3 | melting point | 151 to 153 °C |
| CCCN(CCC)CCNc1n[n+]([O-])c2cc3c(cc2[n+]1[O-])CCC3 | melting point | 142 to 145 °C |
| COCCCN(C)CCNc1nc2cc3c(cc2[n+]([O-])n1)CCC3 | melting point | 41 to 42 °C |
| [O-][n+]1ncnc2cc3c(cc21)CCC3 | melting point | 130 to 131 °C |
| CN1CCc2ccc3nc(N)n[n+]([O-])c3c2C1 | melting point | 226 to 229 °C |

For each of the compounds below, state melting point.
1. [O-][n+]1nc(NCCN2CCCCC2)nc2ccc3c(c21)CCC3
2. [O-][n+]1nc(CCCN2CCOCC2)[n+]([O-])c2cc3c(cc21)CC(CO)C3 (centres unmarked)
3. COC1CCN(CCNc2nc3cc4c(cc3[n+]([O-])n2)CCC4)CC1
4. [O-][n+]1nc(NCCCCN2CCOCC2)[n+]([O-])c2cc3c(cc21)CCC3
5. CC1Cc2cc3c(cc2C1)[n+]([O-])c(CCCN1CCOCC1)n[n+]3[O-] (centres unmarked)
6. CCc1nc2cc3c(cc2[n+]([O-])n1)CC(CO[Si](C)(C)C(C)(C)C)C3 (centres unmarked)
7. [O-][n+]1nc(NCCN2CCOCC2)[n+]([O-])c2cc3c(cc21)CCC3 (as salt: hydrochloride)

152 to 155 °C
112 to 114 °C
131 to 133 °C
140 to 141 °C
119 to 121 °C
63 to 65 °C
184 to 185 °C

For each of the compounds below, state melting point.
1. COCCN(C)CCCNc1nc2cc3c(cc2[n+]([O-])n1)CCC3
2. CN1CCc2cc3c(cc2C1)nc(N)n[n+]3[O-]
3. CC(C)(C)OP(=O)(OCCCc1n[n+]([O-])c2cc3c(cc2[n+]1[O-])CCC3)OC(C)(C)C
4. [O-][n+]1nc(CCCN2CCOCC2)nc2cc3c(cc21)CCO3
5. CCc1n[n+]([O-])c2c3c(ccc2[n+]1[O-])CCN(C)C3
6. [O-][n+]1nc(NCCO)nc2cc3c(cc21)CCC3
7. Nc1nc2cc3c(cc2[n+]([O-])n1)OCCC3
8. CN(C)CCNc1n[n+]([O-])c2c3c(ccc2[n+]1[O-])CCC3

1: 59 to 61 °C; 2: 170 to 175 °C; 3: 129 to 131 °C; 4: 96 to 99 °C; 5: 117 to 121 °C; 6: 222 to 224 °C; 7: 280 to 283 °C; 8: 153 to 156 °C

For each of the compounds below, state melting point.
1. [O-][n+]1nc(I)nc2cc3c(cc21)CC(CCOC1CCCCO1)C3 (centres unmarked)
2. COCCN(C)CCNc1n[n+]([O-])c2cc3c(cc2[n+]1[O-])CCC3
3. [O-][n+]1nc(CCCN2CCOCC2)[n+]([O-])c2cc3c(cc21)CCO3

80 to 82 °C
58 to 61 °C
150 to 154 °C

* * *

# Tested on: human colon carcinoma HT29
# ASSAY COMMENT: Proliferation assay (IC50) under aerobic and hypoxic conditions, HT29
# Assay type: cell-based
# CONDITION DESCRIPTION: hypoxic cytotoxicity ratio = IC50 aerobic/IC50 hypoxic
EXPERIMENTAL ENDPOINT: HCR
One number for each entry.

Worked cases, answers included:
| SAMPLE SMILES | HCR |
| --- | --- |
| CN(C)CCNc1n[n+]([O-])c2c3c(ccc2[n+]1[O-])CCC3 | 67 |
| [O-][n+]1nc(NCCCN2CCOCC2)[n+]([O-])c2cc3c(cc21)CCO3 | 6 |

Now turn to the next molecule.
Please report the measured HCR for CCN(CC)CCNc1n[n+]([O-])c2cc3c(cc2[n+]1[O-])CCC3
61

* * *

Structures can show the parent of a compound that is named as a salt.
EXPERIMENTAL ENDPOINT: melting point

Worked cases, answers included:
| COMPOUND | EXPERIMENTAL ENDPOINT | MEASURED |
| --- | --- | --- |
| CCCN(CCC)CCNc1nc2cc3c(cc2[n+]([O-])n1)CCC3 | melting point | 95 to 97 °C |
| [O-][n+]1nc(NCCCN2CCOCC2)[n+]([O-])c2cc3c(cc21)CCO3 | melting point | 186 to 189 °C |
| O=CCCc1nc2cc3c(cc2[n+]([O-])n1)CCC3 | melting point | 72 to 74 °C |

For each of the compounds below, state melting point.
1. CN(C)C1Cc2cc3nc(N)n[n+]([O-])c3cc2C1 (stereo not drawn)
2. CN(C)CCNc1nc2cc3c(cc2[n+]([O-])n1)OCCC3
3. CN(C)CCNc1nc2ccc3c(c2[n+]([O-])n1)CCC3
4. CCc1n[n+]([O-])c2cc3c(cc2[n+]1[O-])CC(CCO)C3 (stereo not drawn)
5. [O-][n+]1nc(NCCCN2CCOCC2)[n+]([O-])c2cc3c(cc21)OCC3

1: 212 to 216 °C; 2: 150 to 152 °C; 3: 186 to 190 °C; 4: 152 to 155 °C; 5: 145 to 148 °C

For each of the compounds below, state melting point.
1. COC1CN(CCNc2n[n+]([O-])c3cc4c(cc3[n+]2[O-])CCC4)C1
2. CCc1nc2ccc3c(c2[n+]([O-])n1)CN(C)CC3
3. COC1CN(CCCNc2n[n+]([O-])c3cc4c(cc3[n+]2[O-])CCC4)C1
4. Nc1nc2cc3c(cc2[n+]([O-])n1)CC(CCO)C3 (stereo not drawn)
5. Nc1nc2cc3c(cc2[n+]([O-])n1)CCC3

1: 152 °C (dec.); 2: 99 to 102 °C; 3: 150 to 152 °C; 4: 230 to 235 °C; 5: 270 to 272 °C

For each of the compounds below, state melting point.
1. CCc1n[n+]([O-])c2cc3c(cc2[n+]1[O-])CN(C)CC3
2. [O-][n+]1nc(NCCCN2CCOCC2)[n+]([O-])c2cc3c(cc21)CCCC3 (as salt: hydrochloride)
3. CN(C)CCNc1n[n+]([O-])c2cc3c(cc2[n+]1[O-])CCCO3

124 to 128 °C
182 to 185 °C
152 to 154 °C

* * *

I'd be grateful if you could share measured HCR for these entries.
# Test system: human colon carcinoma HT29
# ASSAY COMMENT: Proliferation assay (IC50) under aerobic and hypoxic conditions, HT29
# Format: cell-based
# CONDITION DESCRIPTION: hypoxic cytotoxicity ratio = IC50 aerobic/IC50 hypoxic
Answers are plain numbers.

| COMPOUND | HCR |
| --- | --- |
| COCCN(C)CCCNc1n[n+]([O-])c2cc3c(cc2[n+]1[O-])CCC3 | 81 |
| CC1Cc2cc3c(cc2C1)[n+]([O-])c(CCCO)n[n+]3[O-] (centres unmarked) | 80 |
| [O-][n+]1nc(NCCCCN2CCOCC2)[n+]([O-])c2cc3c(cc21)CCC3 | 28 |
| Nc1n[n+]([O-])c2cc3c(cc2[n+]1[O-])CCC3 | 27 |
| [O-][n+]1nc(CCCN2CCOCC2)[n+]([O-])c2cc3c(cc21)CCC3 | 127 |
| CN(C)CCNc1n[n+]([O-])c2cc3c(cc2[n+]1[O-])CCCO3 | 19 |

For each of the compounds below, state HCR.
1. [O-][n+]1nc(CCCN2CCOCC2)[n+]([O-])c2cc3c(cc21)CC(CO)C3 (centres unmarked)
2. [O-][n+]1nc(NCCCN2CCOCC2)[n+]([O-])c2cc3c(cc21)OCCC3

121
19
